pIC50 values for the compounds below.
Target: β-N-acetyl hexosaminidase
Assay: In vitro glycosidase inhibition, β-N-acetyl hexosaminidase (human placenta)
Type: biochemical
Details: β-N-acetyl hexosaminidase, human placenta
Field pIC50 (float): negative decimal logarithm of the concentration in molar.

compound | test value
CC(=O)N[C@@H]1[C@@H](O)[C@H](O)[C@@H](CO)N[C@H]1CO | 4.14

Entry under review: CC(=O)N[C@@H]1[C@@H](O)[C@H](O)[C@@H](CO)N[C@@H]1CO . Reported pIC50?
4.25
